- Test system: SK-MEL-5 melanoma
- Experiment: NCI-60 one-dose screen, 48 h
- Particulars: 10 µM unless noted
About 83,000 compounds went through this panel and 20% of them were active in at least one assay; those are over-represented in the sample as a whole. Activity calls are given as the source filed them. The calls were made as follows: active = growth percent below 10; inactive = the rest.
Returns: one label drawn from Yes = active, No = inactive

CSc1ccccc1NP1(=O)OCC(C)([N+](=O)[O-])CO1 (centres undefined)    No
Cc1cc(NC(=O)CCc2ccc(N3C(N)=NC(N)=NC3(C)C)cc2)ccc1S(=O)(=O)F    No
CCN(CC)CCOc1c(C(C)C)cccc1C(C)C    No
O=C(C(=O)N1CCCC1)c1cn(CCCCCn2cc(C(=O)C(=O)N3CCCC3)c3ccccc32)c2ccccc12    No
CNC(=O)Oc1cc(C(C)C)ccc1Sc1ccc(C(C)C)cc1OC(=O)NC    No

Turning now to a further record.
What was the test verdict on "COc1ccc(C(c2ccc(OC)cc2)C(Cl)(Cl)Cl)cc1" ?
No

----------
- Tested on: TK-10 renal
- Experiment: NCI-60 one-dose screen, 48 h (100 = growth as untreated, 0 = no growth, -100 = all killed)
- Particulars: 10 µM unless noted
About 83,000 compounds went through this panel and 20% of them were active in at least one assay; those are over-represented in the sample as a whole. Activity calls are given as the source filed them. The calls were made as follows: active = growth percent below 10; inactive = the rest.
Property Name: growth

Completed entries (count: 5):
c1ccc2nc(OCCN3CC3)ccc2c1    108% (inactive)
CC(C)N=C(NC(C)C)N1CC1    122% (inactive)
C1CNC2CCCC2C1 (configuration not stated)    103% (inactive)
NC(=O)NC(=O)CI    88.6% (inactive)
O=C(N/N=C/c1ccc(N(CCCl)CCCl)cc1)c1cc(=O)[nH]c(=O)[nH]1    109% (inactive)

Would you mind telling me what growth value was observed for "O=C1c2ccccc2C(=O)N1[N+](=O)[O-]" ?
93.2% (inactive)

Query N#CCN1C(=O)C(CCC(N)=O)N=C(c2ccc(O)cc2)c2cc(Cl)ccc21 (configuration not stated) next
98.2% [30 µM] (inactive)

----------
- Test system: COLO 205 colon
- Experiment: NCI-60 one-dose screen, 48 h (100 = growth as untreated, 0 = no growth, -100 = all killed)
- Particulars: 10 µM
- Procedure: Cells are grown in 96 well plates and exposed to the test compound for 48 hours. Compounds are tested at a single concentration, which is 10^-5 M for most compounds. The reported endpoint is percent growth (GI% or GIPRCNT), where numbers from 0 - 100% represent growth inhibition, and numbers from -100% - 0 represent cell death. For example, a value of 40 represents 60% growth inhibition. A value of 0 means no net growth occurred over the course of the experiment. […]
The panel holds about 83,000 compounds, 20% with a hit somewhere; the sample as a whole holds those more often.
Property Name: growth (%)
Just the number please, in %, no unit attached.

Below are worked cases with known answers.
CC(C)(C)NCC(O)c1ccccc1Cl (stereo not drawn)    5.34
c1ccc(-c2ccc3ccccc3[o+]2)cc1    111
C[C@]12CC[C@H](OC3OC(O)C(O)C(O)C3O)C=C1CCC1C2CC[C@]2(C)[C@@H](c3ccc(=O)oc3)CC[C@]12O (stereo partly drawn)    -85.1
O=C(CC1(O)C(=O)Nc2ccc(F)cc21)c1ccc(C(=O)NCC2CCC3(CC2)OOC2(CCCCC2)OO3)cc1 (stereo not drawn)    33.7
CCCCn1cc(C(=O)/C(C#N)=C/c2cc3ccccc3nc2Cl)c2cc(OC)ccc21    104

Please tell me: growth of CCC(C)/C=C(C)/C=C/C(=O)c1c(O)c(-c2ccc(O)cc2)c[nH]c1=O (stereo not drawn) , system COLO 205 colon?
105

Could you do the same for "CNC(=O)O/N=C(/C)c1ccc(Cl)cc1" , please?
107

CC12CC[C@H](O)C=C1/C(=N/O)CC1C2CCC2(C)C1CC[C@@H]2O (stereo partly drawn) , same question.
115
